The measurements presented in this section are drawn from patent US20150315211A1.

In this section we review reported Spec Values values for a set of compounds.
- Test system: MCL-1ΔNΔC
- Protocol summary: High-throughput competitive FP binding screen, FITC-MCL-1 SAHB/MCL-1ΔNΔC interaction
- Condition context: selectivity for MCL-1ΔNΔC over BCL-XLΔC targeting (BCL-XL % Bound minus MCL-1 % Bound)
Give your answer as a number; write no unit.

// worked examples, Spec Values included
>>> measured_number("COC(=O)C1C(=O)NC(S)=C(C#N)C1c1ccccc1Cl (centres unmarked)")
47.12
>>> measured_number("Cc1ccc(C)c2[nH]c(=O)c(C(c3nnnn3C3CCCC3)N3CCCC3)cc12 (centres unmarked)")
63.57
>>> measured_number("NNCc1c(Cl)cccc1Cl")
47.77
>>> measured_number("Cc1ccc2c(c1C)NC(C(=O)O)C1CC=CC21 (centres unmarked)")
68.3
>>> measured_number("[Na+].[Na+].[O-]c1c(Cl)cc(Cl)cc1Sc1cc(Cl)cc(Cl)c1[O-]")
73.22
>>> measured_number("CCc1cccc(NC(=O)/C=C/c2ccco2)c1")
81.13
>>> measured_number("O=S(=O)(NNc1cnc2ccccc2n1)c1ccccc1C(F)(F)F")
47.02
>>> measured_number("Fc1ccccc1OCCSc1nnc2c(n1)[nH]c1ccccc12")
54.35

Record CN(Cc1ccc(-c2ccc(Br)cc2)o1)C(=O)c1ccc(S(N)(=O)=O)cc1 / MCL-1ΔNΔC, Spec Values recorded as 45.66

// assay MCL-1ΔNΔC, entry CC1=C(C#N)C(=O)N(CC(C)O)C(=O)/C1=C/c1ccc(-c2ccc(C(=O)OC(C)C)cc2)o1 (centres unmarked) , Spec Values value = 77.49

Tested on MCL-1ΔNΔC, the item CC1CCC(C(C)C)C(OC(=O)COC(=O)c2ccc(O)cc2)C1 (centres unmarked) showed Spec Values equal to 50.73

Considering O=C1C=CC(=O)N1CCc1ccc(Cl)cc1 , its Spec Values with MCL-1ΔNΔC was recorded as 55.93
